Test system: Trypanosoma brucei
Protocol Description: Trypanosoma brucei 72 hour study
Type: functional, organism-based
Set-up: scale not given: in the data most compounds retested in dose-response had high values
Experimental Conditions: 30 µM; 30.03 µM
The whole screen tested about 66,000 compounds, of which about 960 (1.5%) showed an effect of 50% or more. This excerpt belongs to a sample that is enriched for strong results.
// classify: if (Percent Effect < -20%) met else not met

// below: answered compounds
1) O=C(N1CCC(OCc2ccccn2)CC1)C1(c2ccc(F)cc2)CC1; met
2) Cc1cc(N2CCCC3(CN(C)C(=O)O3)C2)c2cc3c(cc2n1)OCO3 (stereo not given); not met
3) CSCCC(NC(N)=O)C(=O)NCc1c(C)nn(-c2ccccc2)c1C (stereo not given); met
4) COc1cccc(-c2nc(C)c(C(=O)N[C@@H](CCSC)C(=O)O)s2)c1; met

Then this compound:
Answer whether the compound Fc1ccc2[nH]c(C3CCCN3CCc3ccccn3)nc2c1 (stereo not given) has Percent Effect strictly less than -20%
not met

###

Test system: Trypanosoma brucei
Protocol Description: Trypanosoma brucei 72 hour study
Assay type: functional, organism-based
Design: scale not given: in the data most compounds retested in dose-response had high values
Experimental Conditions: 30.3 µM; […]
In all, about 66,000 compounds went through this assay and about 960 (1.5%) showed an effect of 50% or more. The list comes from a sample in which strong results are over-represented; it also holds close analogues and randomly drawn compounds.
Property Measured: Percent Effect (%)
Write the number in % without appending the unit.

Consider the worked cases shown below.
1) CCc1cc(CN2CCCCC2c2ccc(F)cc2)on1 (configuration not stated); -64.98
2) CN(C)C[C@@H]1C[C@@H]2CN(C(=O)c3ccoc3)CC[C@@H]2N1CC1CC1.O=C(O)C(F)(F)F; -22.29
3) Fc1ccc(F)c(CN2CCC(c3n[nH]c4ncccc34)CC2)c1.O=C(O)CC(O)(CC(=O)O)C(=O)O; 65.45
4) Cl.O=C(NCC1CCCO1)c1cc(-c2ccncc2)c2cnccc2n1 (configuration not stated); -19.01
5) Cc1noc2nc(C3CCN(CC4CCCCC4)CC3)cc(C(F)F)c12.Cl; 30.15
6) Cc1sc2c(C3CCCN(C(C)C)C3)nc(C)n2c1C (configuration not stated); -21.43
7) Cc1cc(CN(C)C2CCCN(Cc3noc(C)n3)C2)no1 (configuration not stated); -25.02
8) CCSc1ccc(C(=O)N2CC[C@](O)(CC)[C@H](O)C2)s1; -1.451

// fetch Percent Effect for "O=C(COC1CCCC1)N1C[C@@H]2COC[C@]2(COc2cccnc2)C1.O=C(O)C(F)(F)F" ; system: Trypanosoma brucei
-69.72

// fetch Percent Effect for CN1CC[C@]2(CN(CC3CCOC3)C[C@H]2c2ccccc2)C1=O.O=C(O)C(F)(F)F (some centres not stated) ; system: Trypanosoma brucei
-23.92

// fetch Percent Effect for "N#Cc1ccc(C(=O)N2CC[C@H]3[C@H]2CCN3CC2CC2)cc1.O=C(O)C(F)(F)F" ; system: Trypanosoma brucei
-8.518

###

System: Trypanosoma brucei
Protocol Description: Trypanosoma brucei 72 hour study
Assay type: functional, organism-based
Design: scale not given: in the data most compounds retested in dose-response had high values
Experimental Conditions: 30 µM; 30.03 µM
In all, about 66,000 compounds went through this assay and about 960 (1.5%) showed an effect of 50% or more. Shown is part of a subset that was picked to be rich in strong results.
Here the recorded Percent Effect is given for each entry.

Consider the worked cases shown below.
1) Cc1cc(F)ccc1CN1CCC(O)(CN2CCCCC2)C1 (stereo not given); -52.45%
2) COc1cccc2c1ccn2CCNC(=O)CC(C)C; -27.5%
3) NCC(c1ccccc1)N1CCc2sccc2C1 (stereo not given); 35.83%
4) CSc1ccc(C(CN)N2CCc3sccc3C2)cc1 (stereo not given); -3.703%

State its Percent Effect for this compound: CC(CC(=O)N1CCN(c2cnccn2)CC1)c1ccc(F)cc1 (stereo not given)
-67.22%

###

Here the recorded Percent Effect is given for each entry.
Tested on: Trypanosoma brucei
Protocol Description: Trypanosoma brucei 72 hour study
Type: functional, organism-based
Set-up: scale not given: in the data most compounds retested in dose-response had high values
Experimental Conditions: 30 µM; 30.03 µM
Screen size: about 66,000 compounds; about 960 (1.5%) showed an effect of 50% or more. The list comes from a sample in which strong results are over-represented; it also holds close analogues and randomly drawn compounds.
Write the number in % without appending the unit.

Consider the worked cases shown below.
1. Cc1[nH]c2ccc(CNc3cc(C#N)ccn3)cc2c1C; 39.43
2. Cc1[nH]c2ccc(CNc3cc(C(=O)NC(C)C)ccn3)cc2c1C; 50.33
3. CN1CCN(CC(NCc2cccc(O)c2)c2ccccc2)CC1 (stereo not given); 100.4
4. COc1ccc(CN2CCn3cccc3C2C)cc1F (stereo not given); 11.74
5. Cc1[nH]c2ccc(CNc3cc(C(N)=O)ccn3)cc2c1C; 60.58

State its Percent Effect for this compound: "COCCN(C)C[C@@H]1CN(c2nc(C)cc(C)n2)C[C@@H]1CO"
-45.82

State its Percent Effect for this compound: "COC(=O)CN1CC2(CCNCC2)COc2ccccc2S1(=O)=O.O=C(O)C(F)(F)F"
-19.66

State its Percent Effect for this compound: COc1cc(N2CCC3(CCCN(C(=O)c4cnccn4)C3)C2)ncn1.O=C(O)C(F)(F)F (stereo not given)
-22.02

State its Percent Effect for this compound: Cc1ccc(-c2nc(CNC(C)CCO)[nH]c2-c2ccccn2)cc1 (stereo not given)
-54.5

State its Percent Effect for this compound: CCOCC1CN(C(=O)c2cscn2)Cc2cnn(CC3CC3)c21 (stereo not given)
-19.67

###

Test system: Trypanosoma brucei
Protocol Description: Trypanosoma brucei 72 hour study
Format: functional, organism-based
Parameters: scale not given: in the data most compounds retested in dose-response had high values
Experimental Conditions: 30.3 µM; […]
Screen size: about 66,000 compounds; about 960 (1.5%) showed an effect of 50% or more. What follows is part of a selection rich in strong results, with near analogues and random picks from the rest.
Property Measured: Percent Effect (%)
Write the number in % without appending the unit.

State its Percent Effect for this compound: "CCN(CC)C(=O)C1CCN(c2ccc(Cl)cc2C#N)CC1"
-5.722

State its Percent Effect for this compound: CCc1nc(C2CCCN2C(=O)c2ccc3c(c2)nnn3C)no1 (centres undefined)
-22.91

State its Percent Effect for this compound: "CCCN1CCC(NC(=O)Nc2ccc(OC)c(OC)c2)CC1"
-0.7678

###

System: Trypanosoma brucei
Protocol Description: Trypanosoma brucei 72 hour study
Assay type: functional, organism-based
Design: scale not given: in the data most compounds retested in dose-response had high values
Experimental Conditions: 30.3 µM; […]
Among all 66,000 compounds or so, about 960 (1.5%) showed an effect of 50% or more. Only a selection was taken, and strong results are over-represented in it overall.
Here the recorded Percent Effect is given for each entry.
Write the number in % without appending the unit.

1) CN1CCOC(CNCc2coc(-c3ccccc3Cl)n2)C1 (stereo not drawn); 54.4
2) CC(C)c1n[nH]c(C2CN(C(=O)Cn3ccccc3=O)CCO2)n1 (stereo not drawn); 9.582

State its Percent Effect for this molecule: CN1CCOC(CNCc2coc(-c3cccc(Cl)c3)n2)C1 (stereo not drawn)
98.76

###

Test system: Trypanosoma brucei
Protocol Description: Trypanosoma brucei 72 hour study
Type: functional, organism-based
Design: scale not given: in the data most compounds retested in dose-response had high values
Experimental Conditions: 30.3 µM; […]
The campaign covered roughly 66,000 compounds. About 960 (1.5%) showed an effect of 50% or more. For the sample, strong results were picked, then their nearest neighbours and some compounds at random.
Here the recorded Percent Effect is given for each entry.
Write the number in % without appending the unit.

Consider the worked cases shown below.
1. Cn1cc(CNC2CC3(CCN(S(C)(=O)=O)CC3)c3ccccc32)cn1.O=C(O)C(F)(F)F (stereo unspecified); -14.03
2. COc1ncccc1C(=O)N1CCCC(n2ccnc2C)C1 (stereo unspecified); -7.34
3. Cn1ccnc1CN1CCC2(COCCN(S(=O)(=O)C3CC3)C2)C1 (stereo unspecified); 11.66

State its Percent Effect for this compound: "O=C(C1CCOCC1)N1CCc2ncc(CN3CCOCC3)n2CC1.O=C(O)C(F)(F)F"
-405.3

State its Percent Effect for this compound: Clc1cccc(C2CCN(c3ncnc4c3CCNC4)C2)c1 (stereo unspecified)
68.15

State its Percent Effect for this compound: "COc1cccc(CN2C[C@@H]3CC[C@@](O)(c4ccccn4)[C@@H]3C2)c1OC.O=C(O)CC(O)(CC(=O)O)C(=O)O"
-12.48

State its Percent Effect for this compound: Cc1ccc(C(=O)N2CC(=O)N(Cc3cccs3)CC(O)C2)cc1 (stereo unspecified)
2.037

State its Percent Effect for this compound: "Cn1cccc1CN1CCc2c(nc(-c3ccccn3)[nH]c2=O)C1"
100.6

State its Percent Effect for this compound: CCn1c(CN2CCCC(O)(c3ccc(F)cc3)CC2)cnc1SC.O=C(O)CC(O)(CC(=O)O)C(=O)O (stereo unspecified)
-0.3019

State its Percent Effect for this compound: O=C1CN(C(=O)c2ccc(Cl)cc2)CC(O)CN1Cc1cccs1 (stereo unspecified)
99.92

State its Percent Effect for this compound: "Cc1nc[nH]c1CN1CCc2nc3scc(C)c3c(=O)n2CC1.Cl"
-39.02
